Test: Pharmacokinetic determination in rats (IV and PO, plasma, LCMS/MS)
Type: in vivo, SD rats
Conditions: rat, in vivo; PO, 30 mg/kg, male SD rats, overnight fasting, plasma; read-out: AUCo-∞
Note to self: class labels come from recorded AUC(0-inf), ranges listed here: LOW = under 900 ng·h/mL, MEDIUM = from 900 ng·h/mL up to 2000 ng·h/mL, HIGH = 2000 ng·h/mL and over

Input line: # bin lookup: classify [2H]C([2H])([2H])C1Oc2nc(-c3cc(O)cc4ccc(F)c(C#C)c34)c(F)c3nc(OCC4(CN5CCC(=CF)CC5C)CC4)nc(c23)N2CC3CCC(N3)C12 (centres unmarked) by its AUC(0-inf)
Output line: LOW

Input line: # bin lookup: classify CON=C1CCN(CC2(COc3nc4c5c(nc(-c6cc(N)cc(Cl)c6C(F)(F)F)c(F)c5n3)O[C@@H](C)[C@@H]3[C@@H]5CC[C@H](CN43)N5)CC2)CC1 by its AUC(0-inf)
Output line: LOW

Input line: # bin lookup: classify C#Cc1c(F)ccc2cc(O)cc(-c3nc4c5c(nc(OCC6(CN7CCC(=C(F)F)CC7)CC6)nc5c3F)N3C[C@H]5CC[C@H](N5)[C@H]3[C@H](CC)O4)c12 by its AUC(0-inf)
Output line: HIGH

Input line: # bin lookup: classify C#Cc1c(F)ccc2cc(O)cc(-c3nc4c5c(nc(OCC6(CN7CCC(=C(F)F)CC7)CC6)nc5c3F)N3C[C@H]5CC[C@H](N5)[C@H]3CO4)c12 by its AUC(0-inf)
Output line: MEDIUM

Input line: # bin lookup: classify C#Cc1c(F)ccc2cc(O)cc(-c3nc4c5c(nc(OCC6(CN7CC8CC(=C(F)F)CC8C7)CC6)nc5c3F)N3C[C@H]5CC[C@H](N5)[C@H]3[C@H](CC)O4)c12 (some centres unmarked) by its AUC(0-inf)
Output line: HIGH

Input line: # bin lookup: classify C#Cc1c(F)ccc2cc(O)cc(-c3nc4c5c(nc(OCC6(CN7CCC(=C(F)F)CC7)CC6)nc5c3F)N3C[C@H]5CC[C@H](N5)[C@H]3[C@H](C)O4)c12 by its AUC(0-inf)
Output line: HIGH

Input line: # bin lookup: classify C#Cc1c(F)ccc2cc(O)cc(-c3nc4c5c(nc(OCC6(CN7CCC(=CF)CC7C)CC6)nc5c3F)N3CC5CCC(N5)C3C(C)O4)c12 (centres unmarked) by its AUC(0-inf)
Output line: LOW

Input line: # bin lookup: classify C#Cc1c(F)ccc2cc(O)cc(-c3nc4c5c(nc(OCC6(CN7CCC(=CF)CC7)CC6)nc5c3F)N3C[C@H]5CC[C@H](N5)[C@H]3[C@H](C)O4)c12 by its AUC(0-inf)
Output line: MEDIUM

Input line: # bin lookup: classify [2H]C([2H])(Oc1nc2c3c(nc(-c4cc(O)cc5ccc(F)c(C#C)c45)c(F)c3n1)O[C@@H](C)[C@@H]1[C@@H]3CC[C@H](CN21)N3)C1(C([2H])([2H])N2CCC(=C(F)F)CC2)CC1 by its AUC(0-inf)
Output line: HIGH

Input line: # bin lookup: classify C#Cc1c(F)ccc2cc(O)cc(-c3nc4c5c(nc(OCC6(CN7CCCC(=C(F)F)CC7)CC6)nc5c3F)N3C[C@H]5CC[C@H](N5)[C@H]3[C@H](C)O4)c12 by its AUC(0-inf)
Output line: HIGH

Input line: # bin lookup: classify C#Cc1c(F)ccc2cc(O)cc(-c3nc4c5c(nc(OCC6(CN7CCC(=CF)CC7)CC6)nc5c3F)N3C[C@H]5CC[C@H](N5)[C@H]3[C@H](CC)O4)c12 by its AUC(0-inf)
Output line: HIGH
